Attribution: PubChem BioAssay (EPA / NIEHS)

read-out: glucuronosyltransferase (UGT1A1), UGT1A1 (gene 54658); experiment: CLD_UGT1A1_6hr: CellzDirect (CLD) Gene Expression Assay for glucuronosyltransferase (UGT1A1) at 6 hours (AID 2283672)
Records with an inconclusive call do not appear. The source made the active and inactive calls. The calls were made as follows: active = hit-call score of the fitted dose curve at least 0.9, where 1 is the maximum; inconclusive = response in the unintended direction; inactive = score below 0.9.
Bench note: report the call from active, inactive

>>> df
                                   compound     group
0  CSC(=O)c1c(C(F)F)nc(C(F)(F)F)c(C(=O)SC)c1CC(C)C  inactive
1  C=CCOC(=O)C(C)(C)OC(=O)c1cc(-n2c(=O)cc(C(F)(F)F)n(C)c2=O)ccc1Cl  inactive
2     O=C(Nc1ccccc1-c1ccc(Cl)cc1)c1cccnc1Cl  inactive
3              COC(=O)NS(=O)(=O)c1ccc(N)cc1    active
4               Nc1c(Cl)c(Cl)nc(C(=O)O)c1Cl  inactive

Tell me the assay call for COc1ccc(-c2ccccc2)cc1NNC(=O)OC(C)C please.
inactive

Tell me the assay call for CC(C)N1C(=O)N(c2ccccc2)CSC1=NC(C)(C)C please.
inactive

###

read-out: E-selectin (Homo sapiens) (UniProt P16581); assay: BSK_LPS_Eselectin: BioMAP Diversity Plus: LPS Assay for Eselectin Biomarker Activity (AID 2283077); settings: primary human HUVEC with PBMC; actives raise or lower the signal
Sequence (P16581 whole entry, looked up): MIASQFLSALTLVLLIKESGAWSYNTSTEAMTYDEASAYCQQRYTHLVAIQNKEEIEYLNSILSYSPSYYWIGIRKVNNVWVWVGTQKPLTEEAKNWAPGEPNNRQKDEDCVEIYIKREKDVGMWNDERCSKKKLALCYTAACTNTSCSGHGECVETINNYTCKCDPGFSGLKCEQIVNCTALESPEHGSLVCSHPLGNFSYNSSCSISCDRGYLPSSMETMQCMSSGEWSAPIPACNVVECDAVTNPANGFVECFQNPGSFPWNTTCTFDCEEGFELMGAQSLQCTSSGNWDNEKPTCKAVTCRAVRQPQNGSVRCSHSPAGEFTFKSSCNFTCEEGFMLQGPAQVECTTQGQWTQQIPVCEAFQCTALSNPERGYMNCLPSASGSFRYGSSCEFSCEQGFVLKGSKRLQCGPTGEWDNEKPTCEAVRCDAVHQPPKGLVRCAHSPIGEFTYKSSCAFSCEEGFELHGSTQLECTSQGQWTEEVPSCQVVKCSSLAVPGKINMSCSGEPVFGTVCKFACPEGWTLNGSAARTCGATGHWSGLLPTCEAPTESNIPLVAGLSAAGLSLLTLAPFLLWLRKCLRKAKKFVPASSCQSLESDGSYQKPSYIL
Calls of active or inactive are those of the source. Rule for the calls: active = hit-call score of the fitted dose curve at least 0.9, where 1 is the maximum; inactive = score below 0.9.
Bench note: report the call from Y = active, N = inactive

Record excerpt, results attached:
In [3]: df
Out[3]:
                                   molecule  group
0  CC1(C)C(C(=O)OC(C#N)c2cccc(Oc3ccccc3)c2)C1(C)C (stereo not given)      N
1                         N#Cc1c(Cl)cccc1Cl      Y
2                  CCNC(=O)NC(=O)C(C#N)=NOC      N

Tell me the assay call for CCCCC(O)(Cn1cncn1)c1ccc(Cl)cc1Cl (stereo not given) please.
N

Tell me the assay call for CCCCOCN(C(=O)CCl)c1c(CC)cccc1CC please.
Y

###

assay: CCTE_Shafer_MEA_dev_AB: CCTE's Alamar Blue Assay for Cytotoxicity in the Neural Network Formation Assay, Shafer Lab (AID 2284083);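 also: resazurin reduction fluorescence as viability of cultured neurons; twelve days of exposure from plating with re-dosing on DIV 5 and 9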
Results filed as inconclusive are left out. The source made the active and inactive calls. The calls were made as follows: active = hit-call score of the fitted dose curve at least 0.9, where 1 is the maximum; inconclusive = response in the unintended direction; inactive = score below 0.9.
endpoint name: AC50

// below: answered compounds
In [3]: df
Out[3]:
                                   compound          reported
0  CC1(C)C(C=C(Cl)Cl)C1C(=O)OC(C#N)c1cccc(Oc2ccccc2)c1 (stereo unspecified)          inactive
1     COP(=S)(OC)Oc1ccc([N+](=O)[O-])c(C)c1          inactive
2  COC(=O)N(C(=O)N1CO[C@@]2(C(=O)OC)Cc3cc(Cl)ccc3C2=N1)c1ccc(OC(F)(F)F)cc1  2.98 µM (active)
3  CC1(C)C(C(=O)OC(C#N)c2cccc(Oc3ccccc3)c2)C1(C)C (stereo unspecified)  1.98 µM (active)
4            COP(=O)(OC)O/C(C)=C/C(=O)N(C)C          inactive

Give one value of AC50 per listed compound.
1. CCCN(CC)CC1COC2(CCC(C(C)(C)C)CC2)O1 (stereo unspecified)
2. CC(C)=CC1C(C(=O)OCc2coc(Cc3ccccc3)c2)C1(C)C (stereo unspecified)
3. CCNC(=O)NC(=O)C(C#N)=NOC

["0.246 µM (active)", "inactive", "inactive"]
